Reference source: patent US10144738B2

For each entry below, report its pIC50 value.
# tgt: JAK3 (Homo sapiens (Human))
# Sequence (P52333 822-1111): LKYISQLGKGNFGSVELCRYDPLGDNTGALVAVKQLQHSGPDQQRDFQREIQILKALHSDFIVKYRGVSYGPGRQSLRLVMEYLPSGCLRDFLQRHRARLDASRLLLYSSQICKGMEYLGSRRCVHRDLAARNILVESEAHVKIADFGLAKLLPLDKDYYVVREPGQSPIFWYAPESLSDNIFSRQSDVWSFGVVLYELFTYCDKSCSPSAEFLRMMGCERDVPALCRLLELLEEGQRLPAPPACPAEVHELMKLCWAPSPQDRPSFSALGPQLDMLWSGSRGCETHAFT
# assay-explanation: JAK Caliper enzyme assay at 1 mM ATP (JAK3)
# Type: biochemical
# measurement-conditions: recombinant human kinase domain, Caliper mobility shift
pIC50: −log10 of the molar value.

These solved cases illustrate the format of a correct answer.
>  <structure-as-smiles>
CO[C@H]1C[C@](CC#N)(n2cc(-c3nc(-c4cnn(C)c4)cn4nccc34)cn2)C1

>  <tgt>
JAK3 (Homo sapiens (Human))

>  <pIC50>
< 5.04

$$$$
>  <structure-as-smiles>
Cn1cc(-c2cn3nccc3c(-c3cnn([C@]4(CC#N)C[C@H](O)C4)c3)n2)cn1

>  <tgt>
JAK3 (Homo sapiens (Human))

>  <pIC50>
< 5.00

$$$$
>  <structure-as-smiles>
CCC(=O)N1CC(CC#N)(n2cc(-c3nc(-c4cnn(C)c4)cn4nccc34)cn2)C1

>  <tgt>
JAK3 (Homo sapiens (Human))

>  <pIC50>
< 5.00

$$$$
>  <structure-as-smiles>
CO[C@H]1C[C@](CC#N)(n2cc(-c3nc(-c4cc(N)[nH]n4)cn4nccc34)cn2)C1

>  <tgt>
JAK3 (Homo sapiens (Human))

>  <pIC50>
< 5.00

$$$$
>  <structure-as-smiles>
Cn1cc(-c2cn3nccc3c(-c3cnn([C@]4(CC#N)C[C@H](CC#N)C4)c3)n2)cn1

>  <tgt>
JAK3 (Homo sapiens (Human))

>  <pIC50>
< 5.21

$$$$

# get_value(readout='pIC50', item= "Cc1cnn2cc(-c3cnn(C)c3)nc(-c3cnn([C@]4(CC#N)C[C@@H](C#N)C4)c3)c12" )
< 5.00
